Overview of reported IC50 across a group of compounds:
test system: Phospho-ERK1/2 in DLD1 cells; assay: Phospho-ERK1/2 expression inhibition in DLD1 cells; format: cell-based; details: Homo sapiens, DLD-1, 4 hours, read-out: DLD1 pERK IC50

• COC(=O)N1CCC(F)(c2cc3c(N[C@H](C)c4cccc(C(F)(F)F)c4C)ccnc3cc2OC)CC1 = 150 to 500 nM
• CC(=O)N1C2CC1CN(c1ccc3nccc(N[C@H](C)c4cccc(C(F)(F)F)c4C)c3c1)C2 = > 500 nM
• [2H]C([2H])([2H])O[C@@]1(c2ccc3nccc(N[C@H](C)c4cccc(C(F)F)c4F)c3c2)CCN(C(C)=O)C1 = ≤ 150 nM
• Cc1c([C@@H](C)Nc2ccnc3ccc(N4CCN(C(=O)C5CC5)CC4)cc23)cccc1C(F)(F)F = > 500 nM
• Cc1c([C@@H](C)Nc2ccnc3ccc(N4CCN(c5cnn(C)c5)CC4)cc23)cccc1C(F)(F)F = > 500 nM
• CC(C)C(=O)N1CCN(c2ccc3nccc(N[C@H](C)c4cccc(C(F)F)c4F)c3c2)CC1 = ≤ 150 nM

Enter reported IC50 observed with Phospho-ERK1/2 in DLD1 cells for "CNC(=O)N1CC[C@@](OC)(c2ccc3nccc(N[C@H](C)c4cccc(C(F)F)c4F)c3c2)C1" > 500 nM

###

Overview of reported IC50 across a group of compounds:
biological target: SOS1/KRAS-G12D (Homo sapiens (Human)); assay: SOS1/KRAS-G12D binding inhibition assay (AlphaScreen); conditions: GST-SOS1 and 6*His KRAS-G12D, read-out: KrasG12D/SOS1 binding IC50
Sequence (Q07889 564-1049 limits assumed): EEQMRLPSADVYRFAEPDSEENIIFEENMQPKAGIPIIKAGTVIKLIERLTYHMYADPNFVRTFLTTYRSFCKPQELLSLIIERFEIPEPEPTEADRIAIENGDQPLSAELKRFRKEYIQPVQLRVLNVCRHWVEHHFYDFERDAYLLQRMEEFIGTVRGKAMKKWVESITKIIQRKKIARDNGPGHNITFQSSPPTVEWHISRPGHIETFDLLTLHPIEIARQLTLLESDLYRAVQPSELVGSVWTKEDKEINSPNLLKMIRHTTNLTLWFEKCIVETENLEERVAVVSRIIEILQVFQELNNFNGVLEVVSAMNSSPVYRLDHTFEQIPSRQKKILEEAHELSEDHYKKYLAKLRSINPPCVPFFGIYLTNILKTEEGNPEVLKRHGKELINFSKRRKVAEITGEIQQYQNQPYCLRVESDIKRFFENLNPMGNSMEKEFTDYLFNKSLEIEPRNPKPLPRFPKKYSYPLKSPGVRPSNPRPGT

Some solved cases for reference:
- C[C@@H](Nc1ccnc2ccc(N3CC[C@@H](N)C3)cc12)c1cccc(C(F)F)c1F [Compound 9]: ≤ 10 nM
- C[C@@H](Nc1ccnc2ccc(N3CC[C@@H](NC(=O)OC(C)(C)C)C3)cc12)c1cccc(C(F)F)c1F [Compound 8]: 10 to 100 nM
- Cc1c([C@@H](C)Nc2ccnc3ccc(N4C[C@H](C)NC[C@H]4C)cc23)cccc1C(F)(F)F [Compound 54]: 10 to 100 nM

I would be grateful if you could share the reported IC50 for CC(=O)N[C@@H]1CCN(c2ccc3ncc(C#N)c(N[C@H](C)c4cccc(C(F)F)c4F)c3c2)C1 [Compound 7] . > 100 nM

C[C@@H](Nc1ccnc2ccc(N3CCN(C(=O)[C@H]4CCOC4)CC3)cc12)c1cccc(C(F)F)c1F [Compound 14] ? ≤ 10 nM

Cc1c([C@@H](C)Nc2ccnc3ccc(N4CC5CC(C4)O5)cc23)cccc1C(F)(F)F [Compound 19] ? > 100 nM

C[C@@H](Nc1ccnc2ccc(N3CC[C@H](N)C3)cc12)c1cccc(C(F)F)c1F [Compound 18] ? 10 to 100 nM

CC(=O)N1CCN(c2ccc3nccc(N[C@H](C)c4cccc(C(F)(F)F)c4C)c3c2)CC1(C)C [Compound 36] ? 10 to 100 nM

COC(=O)N1CCC(F)(c2cc3c(N[C@H](C)c4cccc(C(F)(F)F)c4C)ccnc3cc2OC)CC1 [Compound 74] ? 10 to 100 nM

COC1(c2ccc3nccc(N[C@H](C)c4cccc(C(F)(F)F)c4C)c3c2)CCN(C(C)=O)CC1 [Compound 79] ? 10 to 100 nM

Cc1c([C@@H](C)Nc2ccnc3ccc(N4CCN(C(=O)C5COC5)CC4)cc23)cccc1C(F)(F)F [Compound 29] ? 10 to 100 nM

CC(=O)N1C[C@H](C)N(c2ccc3nccc(N[C@H](C)c4cccc(C(F)(F)F)c4C)c3c2)C[C@H]1C [Compound 66] ? > 100 nM

C[C@@H](Nc1ccnc2c(F)cc(N3CC[C@@H](N)C3)cc12)c1cccc(C(F)F)c1F [Compound 30] ? 10 to 100 nM

CO[C@@]1(c2ccc3nccc(N[C@H](C)c4cccc(C(F)F)c4F)c3c2)CCN(C(=O)C(C)C)C1 [Compound 91] ? ≤ 10 nM

These data points were gathered from patent US20240208909A1.
